Where do these numbers come from? They come from patent US9765075B2.

Molecular target: SIRT1 (Homo sapiens)
Assay: Trp mass spectrometry assay (SIRT1 activation)
Format: biochemical
Conditions: concentration of test compound that results in 150% activation of SIRT1; Trp peptide substrate
property: Tryp AVG EC1.5 (μM)

# compound, Tryp AVG EC1.5 (μM)
records = [
    ("Cc1cncc(NC(=O)N2c3nc(N4CCCC(C(F)(F)F)C4)ccc3N3CC[C@H]2C3)c1 (stereo partly shown) [Example 230]", "A (EC1.5<1 μM)"),
    ("O=C(Nc1cnccn1)N1c2nc(-c3cc(Cl)cc(Cl)c3)ccc2N2CC[C@H]1C2 [Example 364]", "B (EC1.5 1-25 μM)"),
    ("O=C(Nc1ccc(F)cn1)N1c2nc(-c3cccc(N4CC[C@@H](F)C4)c3)ccc2N2CC[C@H]1C2 [Example 269]", "B (EC1.5 1-25 μM)"),
    ("O=C(Nc1cnccn1)N1c2nc(-c3ccnc(N4CCC(C(F)(F)F)C4)c3)ccc2N2CC[C@H]1C2 (stereo partly shown) [Example 389]", "A (EC1.5<1 μM)"),
    ("O=C(Nc1cccc(-c2cnco2)c1)N1c2nc(-c3cccc(Cl)c3)ccc2N2CC[C@@H]1C2 [Example 235]", "A (EC1.5<1 μM)"),
    ("COc1cc(NC(=O)N2c3nc(-c4ccnc(N5CC[C@H](F)C5)c4)ccc3N3CC[C@H]2C3)ncn1 [Example 437]", "B (EC1.5 1-25 μM)"),
]

Let us move to another entry and its Tryp AVG EC1.5 (μM).
The recorded Tryp AVG EC1.5 (μM) with SIRT1 (Homo sapiens) for COc1cc(NC(=O)N2c3nc(-c4cccc(N5CCC(C(F)(F)F)C5)c4)ccc3N3CC[C@H]2C3)ncn1 (stereo partly shown) [Example 320] was B (EC1.5 1-25 μM)

----------
Molecular target: full-length hSIRT1 T219A (Homo sapiens, UniProt Q96EB6, T219A)
Construct: The following point mutants of full-length hSIRT1 were generated; His6 (C)
Experiment: SIRT1 activation dose-response, OAcADPr assay with Ac-p53(W5) substrate
Conditions: hSIRT1 T219A; activation dose-response, Ac-p53(W5) substrate
pEC50: −log10 of the molar value.
property: pEC50

A = Cc1cnc2c(NC(=O)N3c4nc(-c5cccc(C(F)(F)F)c5)ccc4N4CC[C@H]3C4)cccc2n1
B = O=C(Nc1ccccn1)N1c2nc(-c3cccc(C(F)(F)F)c3)ccc2N2CC[C@H]1C2
[in] Param metric = pEC50; output whichever of A , B has the minimum value. Answer format: the label of the selected item.
[out] B
(B: 5.05, A: 5.40)

----------
Biological target: SIRT1 (Homo sapiens, UniProt Q96EB6)
Sequence (Q96EB6 1-747): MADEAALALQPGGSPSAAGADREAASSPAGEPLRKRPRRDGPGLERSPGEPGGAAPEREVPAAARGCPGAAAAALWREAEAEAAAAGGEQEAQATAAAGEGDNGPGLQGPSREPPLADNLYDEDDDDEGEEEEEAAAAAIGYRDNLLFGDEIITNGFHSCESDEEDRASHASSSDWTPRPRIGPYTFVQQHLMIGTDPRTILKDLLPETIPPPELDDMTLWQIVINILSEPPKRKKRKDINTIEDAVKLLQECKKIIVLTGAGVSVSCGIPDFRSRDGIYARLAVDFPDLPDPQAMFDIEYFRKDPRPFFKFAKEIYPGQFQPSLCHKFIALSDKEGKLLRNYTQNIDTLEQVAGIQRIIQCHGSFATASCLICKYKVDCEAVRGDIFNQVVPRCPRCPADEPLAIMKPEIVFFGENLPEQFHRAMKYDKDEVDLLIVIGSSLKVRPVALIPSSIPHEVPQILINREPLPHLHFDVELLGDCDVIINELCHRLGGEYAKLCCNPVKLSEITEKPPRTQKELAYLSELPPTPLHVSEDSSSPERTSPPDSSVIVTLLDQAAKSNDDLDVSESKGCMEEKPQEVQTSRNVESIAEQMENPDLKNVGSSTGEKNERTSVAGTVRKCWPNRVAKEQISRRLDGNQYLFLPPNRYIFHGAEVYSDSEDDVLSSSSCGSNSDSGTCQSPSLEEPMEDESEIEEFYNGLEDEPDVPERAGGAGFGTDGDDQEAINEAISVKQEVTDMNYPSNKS
Assay: Trp mass spectrometry assay (SIRT1 activation)
Format: biochemical
Settings: concentration of test compound that results in 150% activation of SIRT1; Trp peptide substrate

# compound, Tryp AVG EC1.5 (μM)
records = [
    ("Cc1ccc(-c2ccc3c(n2)N(C(=O)Nc2ccc(F)cn2)[C@H]2CCN3C2)cn1", "B (EC1.5 1-25 μM)"),
    ("O=C(Nc1cc(-c2cnco2)ccn1)N1c2nc(-c3cccc(C(F)(F)F)c3)ccc2N2CCC1CC2", "A (EC1.5<1 μM)"),
    ("O=C(Nc1cncc(F)c1)N1c2nc(Cl)ccc2N2CC[C@H]1C2", "B (EC1.5 1-25 μM)"),
    ("O=C(Nc1cccc(-c2cnco2)c1)N1c2nc(N3CCCC(C(F)(F)F)C3)ccc2N2CCC[C@@H]1C2 (stereo partly shown)", "A (EC1.5<1 μM)"),
]

----------
Measured Emax, listed per entry for reference.
Molecular target: SIRT1 (Homo sapiens)
Experiment: Trp mass spectrometry assay (SIRT1 activation)
Type: biochemical
Conditions: Trp mass spectrometry assay; percent maximum fold activation of SIRT1; read-out: Tryp % Fold Act

# smiles_code, assay_target, result
measured = [
    ("O=C(Nc1ncc(-c2ccccc2)s1)N1c2nc(-c3cccc(C(F)(F)F)c3)ccc2N2CC[C@H]1C2", "SIRT1 (Homo sapiens)", "≥ 150%"),
    ("O=C(Nc1ccccn1)N1c2nc(-c3cccc(Cl)c3)ccc2N2C[C@@H](O)[C@H]1C2", "SIRT1 (Homo sapiens)", "≥ 150%"),
    ("CCN(CC)C(=O)N1c2nc(-c3cccc(C(F)(F)F)c3)ccc2N2CC[C@H]1C2", "SIRT1 (Homo sapiens)", "< 150%"),
    ("Cc1nc(NC(=O)N2c3nc(-c4cccc(C(F)(F)F)c4)ccc3N3C[C@@H](O)[C@H]2C3)sc1C", "SIRT1 (Homo sapiens)", "≥ 150%"),
    ("Cc1cnccc1NC(=O)N1c2nc(-c3cccc(C(F)(F)F)c3)ccc2N2CCC[C@H]1C2", "SIRT1 (Homo sapiens)", "≥ 150%"),
]

Emax reported for this molecule Cn1cc(NC(=O)N2c3nc(-c4cccc(C#N)c4)ccc3N3CC[C@H]2C3)cn1 : ≥ 150%

Emax reported for this molecule O=C1OCc2ccc(NC(=O)N3c4nc(-c5cccc(C(F)(F)F)c5)ccc4N4CC[C@H]3C4)cc21 : ≥ 150%

Emax reported for this molecule Cc1cccnc1NC(=O)N1c2nc(-c3cccc(C(F)(F)F)c3)ccc2N2CC[C@H]1C2 : < 150%

----------
Molecular target: UniProtKB Q96EB6
Test: Trp mass spectrometry assay (SIRT1 activation)
Type: biochemical
Settings: Trp mass spectrometry assay; EC1.5 = concentration giving 150% activation of SIRT1
property: Tryp AVG EC1.5 (μM)

# molecule, result
records = [
    ("CS(=O)(=O)c1cccc(-c2ccc3c(n2)N(C(=O)Nc2cccc(-c4cnco4)n2)[C@H]2CCN3C2)c1 [Example 715]", "B (EC1.5 1-25 μM)"),
    ("O=C(Nc1cc(-c2cnco2)ccn1)N1c2nc(-c3cccc(C(F)(F)F)c3)ccc2N2C[C@@H](O)[C@H]1C2 [Example 662]", "B (EC1.5 1-25 μM)"),
    ("O=C(Nc1cccnn1)N1c2nc(-c3cncc(C(F)(F)F)c3)ccc2N2C[C@@H](O)[C@H]1C2 [Example 701]", "B (EC1.5 1-25 μM)"),
    ("NCCCCCC(=O)NCc1cccc(NC(=O)N2c3nc(-c4cccc(C(F)(F)F)c4)ccc3N3CCC[C@H]2C3)c1 [Example 756]", "A (EC1.5<1 μM)"),
    ("O=C(Nc1cc(-c2cnco2)ccn1)N1c2nc(-c3cncc(F)c3)ccc2N2CC[C@H]1C2 [Example 727]", "A (EC1.5<1 μM)"),
]

Let us move to another entry and its Tryp AVG EC1.5 (μM).
Tryp AVG EC1.5 (μM) reported for this molecule CCc1nnc(NC(=O)N2c3nc(-c4cccc(C(F)(F)F)c4)ccc3N3CC[C@H]2C3)s1 [Example 647] : A (EC1.5<1 μM)

----------
Target: full-length hSIRT1 Q222A (Homo sapiens, UniProt Q96EB6, Q222A)
Construct: The following point mutants of full-length hSIRT1 were generated
Sequence (Q96EB6 1-747 Q222A): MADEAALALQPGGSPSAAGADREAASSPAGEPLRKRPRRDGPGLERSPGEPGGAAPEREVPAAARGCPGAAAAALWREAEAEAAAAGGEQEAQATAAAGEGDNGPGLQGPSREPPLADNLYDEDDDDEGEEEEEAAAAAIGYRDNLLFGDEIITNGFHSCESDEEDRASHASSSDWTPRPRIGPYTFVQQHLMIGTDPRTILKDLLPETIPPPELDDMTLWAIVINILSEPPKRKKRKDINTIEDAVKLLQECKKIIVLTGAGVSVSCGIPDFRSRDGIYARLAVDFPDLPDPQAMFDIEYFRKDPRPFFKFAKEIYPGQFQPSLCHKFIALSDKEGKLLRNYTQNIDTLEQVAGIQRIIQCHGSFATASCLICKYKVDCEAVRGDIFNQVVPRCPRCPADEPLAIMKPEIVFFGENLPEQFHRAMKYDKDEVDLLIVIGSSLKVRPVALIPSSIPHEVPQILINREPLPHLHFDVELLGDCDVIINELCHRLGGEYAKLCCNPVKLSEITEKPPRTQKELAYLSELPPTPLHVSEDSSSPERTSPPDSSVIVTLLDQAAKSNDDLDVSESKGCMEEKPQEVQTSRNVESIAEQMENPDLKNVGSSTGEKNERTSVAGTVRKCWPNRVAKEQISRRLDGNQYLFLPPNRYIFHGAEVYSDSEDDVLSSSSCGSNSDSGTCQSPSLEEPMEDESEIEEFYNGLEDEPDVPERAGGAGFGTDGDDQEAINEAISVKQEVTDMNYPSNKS
Test: SIRT1 activation dose-response, OAcADPr assay with Ac-p53(W5) substrate
Settings: hSIRT1 Q222A; activation dose-response, Ac-p53(W5) substrate
pEC50: −log10 of the molar value.
property: pEC50

A = Cc1cnc2c(NC(=O)N3c4nc(-c5cccc(C(F)(F)F)c5)ccc4N4CC[C@H]3C4)cccc2n1 [Example 8]
B = O=C(Nc1ccccn1)N1c2nc(-c3cccc(C(F)(F)F)c3)ccc2N2CC[C@H]1C2 [Example 7]
[in] Param metric = pEC50; output whichever of A , B has the minimum value. Answer format: the label of the selected item.
[out] B
